target: HLA-A*33:01; assay: IEDB peptide-MHC binding, purified MHC/competitive/radioactivity; bounds were set here for any values at or beyond the usual limits of such assays; conditions: source organism: Mammarenavirus guanaritoense
Measured property: IC50 (nM)
Write it as a number; the unit nM goes unstated.

Task: Recall the reported IC50 of "TTSLFLHLV" on HLA-A*33:01 and write it down.
Output: 2270

* * *

target: HLA-A*68:01; assay: IEDB peptide-MHC binding, purified MHC/competitive/radioactivity; bounds were set here for any values at or beyond the usual limits of such assays; conditions: source organism: Mammarenavirus lassaense
Measured property: IC50 (nM)
Write it as a number; the unit nM goes unstated.

Task: State its IC50: "TSFYLISIFL"
Output: 1910
